Biological target: hP2X3 (Homo sapiens)
Sequence (P56373 whole entry): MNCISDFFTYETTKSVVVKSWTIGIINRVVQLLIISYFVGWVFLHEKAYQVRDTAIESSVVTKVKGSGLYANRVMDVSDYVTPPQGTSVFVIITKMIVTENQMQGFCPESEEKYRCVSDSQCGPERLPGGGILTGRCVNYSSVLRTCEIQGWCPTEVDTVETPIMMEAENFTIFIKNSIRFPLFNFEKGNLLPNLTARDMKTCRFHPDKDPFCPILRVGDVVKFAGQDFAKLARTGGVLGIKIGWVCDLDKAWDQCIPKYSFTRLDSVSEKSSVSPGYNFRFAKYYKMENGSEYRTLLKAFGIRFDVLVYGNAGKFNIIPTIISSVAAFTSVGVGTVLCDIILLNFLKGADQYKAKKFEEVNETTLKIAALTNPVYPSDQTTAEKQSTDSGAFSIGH
Assay: FLIPR intracellular calcium assay, hP2X3
Details: human P2X3-HEK cells, agonist at EC75
measure: IC50

>>> measurement("CCC(C)n1cc2nc(N3CCN(C(C)=O)CC3)nc(NC(C)(C)Cc3ccc(Cl)cc3)c2n1 (stereo not drawn)")
"0.1 to 1 µM"
>>> measurement("CCC(C)n1ncc2nc(N3CCN(C(C)=O)CC3)nc(N[C@@H](c3cnc4ccccc4c3)C3CC3)c21 (stereo partly drawn)")
"0.001 to 0.1 µM"
>>> measurement("CC(=O)N1CCN(c2nc(NC(C)c3cnc4ccccc4c3)c3nn(C(C)C)cc3n2)CC1 (stereo not drawn)")
"0.1 to 1 µM"
>>> measurement("CCC(C)n1ncc2nc(N3CCN(C(N)=NC#N)CC3)nc(N[C@@H](c3cnc4ccccc4c3)C3CC3)c21 (stereo partly drawn)")
"0.001 to 0.1 µM"
>>> measurement("CC[C@@H](C)n1ncc2nc(N3CCN(C(N)=O)CC3)nc(N[C@@H](c3cnc4ccccc4c3)C3CC3)c21")
"0.001 to 0.1 µM"
>>> measurement("CCC(C)n1ncc2nc(N3CCOC(C#N)C3)nc(N[C@@H](c3cnc4ccccc4c3)C3CC3)c21 (stereo partly drawn)")
"0.1 to 1 µM"
>>> measurement("CCC(C)n1ncc2nc(N3CCN(C)C(=O)C3)nc(N[C@H](C)c3cnc4ccccc4c3)c21 (stereo partly drawn)")
"0.1 to 1 µM"
>>> measurement("CCC(CC)n1ncc2nc(N3CCN(C(C)=O)CC3)nc(NC(C)c3ccc4oc(C5CC5)cc4c3)c21 (stereo not drawn)")
"0.001 to 0.1 µM"
>>> measurement("CCC(C)n1ncc2nc(-c3cnn(CCO)c3)nc(N[C@@H](c3cnc4ccccc4c3)C3CC3)c21 (stereo partly drawn)")
"0.001 to 0.1 µM"
>>> measurement("CC(=O)N1CCN(c2nc(N[C@@H](C)c3cnc4ccccc4c3)c3c(cnn3C(C)C)n2)CC1")
"0.1 to 1 µM"
>>> measurement("CCOc1ccc([C@H](C)Nc2nc(N3CCN(C(C)=O)CC3)nc3cnn(C(CC)CC)c23)cc1")
"0.001 to 0.1 µM"
>>> measurement("CC(=O)N1CCN(c2nc(N[C@H](C)c3cnc4ccccc4c3)c3c(cnn3CC3CCC3)n2)CC1")
"0.001 to 0.1 µM"
>>> measurement("CCC(C)n1ncc2nc(N3CCN(C(C)=O)CC3)nc(NC(C)c3ccc(-c4ccccn4)cc3)c21 (stereo not drawn)")
"0.1 to 1 µM"
>>> measurement("CC(=O)N1CCN(c2nc(N[C@H](C)c3cnc4ccccc4c3)c3c(cnn3C(C3CC3)C3CC3)n2)CC1")
"0.001 to 0.1 µM"
>>> measurement("CCC(CC)n1ncc2nc(N3CCN(C(C)=O)CC3)nc(N[C@H](C)c3ccc4ccccc4c3)c21")
"0.001 to 0.1 µM"
>>> measurement("CC(=O)N1CCN(c2nc(N[C@H](C)c3cnc4ccccc4c3)c3c(cnn3C3CCCC3)n2)CC1")
"0.001 to 0.1 µM"
>>> measurement("CC[C@H](C)n1ncc2nc(N3CCN(C(N)=O)CC3)nc(NC(C)c3n[nH]c4ccccc34)c21 (stereo partly drawn)")
"0.1 to 1 µM"
>>> measurement("CC[C@H](C)n1ncc2nc(N3CCN(C(N)=O)CC3)nc(NC(C)c3cc4ccccn4n3)c21 (stereo partly drawn)")
"0.1 to 1 µM"
>>> measurement("CCC(C)n1ncc2nc(-n3cnnn3)nc(N[C@@H](c3cnc4ccccc4c3)C3CC3)c21 (single isomer, unassigned) [Example 78]")
"0.1 to 1 µM"
>>> measurement("CCn1ncc2nc(N3CCN(C(C)=O)CC3)nc(N[C@H](C)c3cnc4ccccc4c3)c21")
"0.1 to 1 µM"
>>> measurement("CCC(C)n1ncc2nc(C(=O)NC3CC3)nc(N[C@@H](c3cnc4ccccc4c3)C3CC3)c21 (stereo partly drawn)")
"0.001 to 0.1 µM"
>>> measurement("CC[C@@H](C)n1ncc2nc(N3CCN(C(C)=O)CC3)nc(N[C@H](C)c3cnc4ccccc4c3)c21")
"0.001 to 0.1 µM"
>>> measurement("CC(=O)N1CCN(c2nc(N[C@H](C)c3cnc4ccccc4c3)c3nn(-c4ccccc4)cc3n2)CC1")
"0.1 to 1 µM"
>>> measurement("CC(=O)N1CCN(c2nc(N[C@@H](c3cnc4ccccc4c3)C3CC3)c3c(cnn3C(C)C(C)C)n2)CC1 (stereo partly drawn)")
"0.001 to 0.1 µM"
>>> measurement("CCC(C)n1ncc2nc(N3CCC(C(N)=O)CC3)nc(N[C@@H](c3cnc4ccccc4c3)C3CC3)c21 (stereo partly drawn)")
"0.001 to 0.1 µM"
>>> measurement("CCC(CC)n1ncc2nc(N3CCN(C(C)=O)CC3)nc(NCC3(c4ccc(Cl)cc4)CCC3)c21")
"0.001 to 0.1 µM"
>>> measurement("CCC(C)n1ncc2nc(-c3cnn(CCF)c3)nc(N[C@H](C)c3cn4ccc(C)cc4n3)c21 (stereo partly drawn)")
"0.001 to 0.1 µM"
>>> measurement("CC[C@H](C)n1ncc2nc(-c3cnn(CCF)c3)nc(NC(CO)c3cnc4ccccc4c3)c21 (stereo partly drawn)")
"0.001 to 0.1 µM"
>>> measurement("CCC(C)n1ncc2nc(N3CCN(C(C)=O)CC3)nc(N[C@H](CC)c3cnc4ccccc4c3)c21 (stereo partly drawn)")
"0.001 to 0.1 µM"
>>> measurement("CC(=O)N1CCN(c2nc(N[C@H](C)c3cnc4ccccc4c3)c3nn(CC(C)C)cc3n2)CC1")
"0.1 to 1 µM"

---

Catalogue of compounds with associated IC50
Molecular target: hP2X3 (Homo sapiens)
Construct: host or cells: HEK (hP2X3-HEK)
Experiment: FLIPR intracellular calcium assay, hP2X3
Assay type: cell-based
Conditions: human P2X3-HEK cells, agonist at EC75
measure: IC50

>>> measurement("CCC(C)n1ncc2nc(-c3cnn(CC(N)=O)c3)nc(N[C@@H](c3cnc4ccccc4c3)C3CC3)c21 (stereo partly drawn)")
"100 to 1000 nM"
>>> measurement("CCC(CC)n1ncc2nc(N3CCN(C(C)=O)CC3)nc(N[C@@H](CC)c3cnc4ccccc4c3)c21")
"100 to 1000 nM"
>>> measurement("CCC(C)n1ncc2nc(N3CCN(C(C)=O)CC3)nc(NC(c3ccc(-c4ccccc4)nc3)C3CC3)c21 (stereo not drawn)")
"1 to 100 nM"
>>> measurement("CC(=O)N1CCN(c2nc(N[C@H](C)c3cnc4ccccc4c3)c3c(n2)c(C#N)nn3C(C)C)CC1")
"1 to 100 nM"
>>> measurement("CCC(C)n1ncc2nc(-c3cnn(C)c3)nc(N[C@@H](c3cnc4ccccc4c3)C3CC3)c21 (stereo partly drawn)")
"1 to 100 nM"
>>> measurement("CCC(C)n1ncc2nc(-c3cnn(CCO)c3)nc(N[C@H](C)c3cnc4ccccc4c3)c21 (stereo partly drawn)")
"1 to 100 nM"
>>> measurement("CCC(C)n1ncc2nc(N3CCN(C(N)=O)CC3)nc(N[C@H](C)c3cn4ccc(C)cc4n3)c21 (stereo partly drawn)")
"1 to 100 nM"
>>> measurement("CCC(C)n1cc2nc(N3CCN(C(C)=O)CC3)nc(N[C@H](C)c3cnc4ccccc4c3)c2n1 (stereo partly drawn)")
"1 to 100 nM"
>>> measurement("CCC(C)n1ncc2nc(N3CCN(C(C)=O)CC3)nc(NC(C)c3ccc4oc(C)cc4c3)c21 (stereo not drawn)")
"1 to 100 nM"
>>> measurement("CC(=O)N1CCN(c2nc(NC(C)(C)Cc3ccc(Cl)cc3)c3nn(C(C)C)cc3n2)CC1")
"100 to 1000 nM"
>>> measurement("CCN1CCN(c2nc(N[C@H](C)c3cnc4ccccc4c3)c3c(cnn3C(C)C)n2)CC1=O")
"1 to 100 nM"
>>> measurement("CCC(C)n1nc2c(N[C@H](C)c3cnc4ccccc4c3)nc(N3CCN(C(C)=O)CC3)nc2c1C#N (stereo partly drawn)")
"1 to 100 nM"
>>> measurement("CCC(C)n1ncc2nc(N3CCN(S(N)(=O)=O)CC3)nc(N[C@@H](c3cnc4ccccc4c3)C3CC3)c21 (stereo partly drawn)")
"1 to 100 nM"
>>> measurement("CCC(C)n1ncc2nc(-c3cn[nH]c3)nc(N[C@@H](c3cnc4ccccc4c3)C3CC3)c21 (stereo partly drawn)")
"1 to 100 nM"
>>> measurement("CCC(CC)n1ncc2nc(N3CCN(C(C)=O)CC3)nc(NC(C)c3cnc4ccc(F)cc4c3)c21 (stereo not drawn)")
"1 to 100 nM"

---

Catalogue of compounds with associated IC50
Molecular target: hP2X2/3 (Homo sapiens, UniProt P56373+Q9UBL9)
Sequence (P56373 whole entry): as above
Sequence (Q9UBL9 whole entry): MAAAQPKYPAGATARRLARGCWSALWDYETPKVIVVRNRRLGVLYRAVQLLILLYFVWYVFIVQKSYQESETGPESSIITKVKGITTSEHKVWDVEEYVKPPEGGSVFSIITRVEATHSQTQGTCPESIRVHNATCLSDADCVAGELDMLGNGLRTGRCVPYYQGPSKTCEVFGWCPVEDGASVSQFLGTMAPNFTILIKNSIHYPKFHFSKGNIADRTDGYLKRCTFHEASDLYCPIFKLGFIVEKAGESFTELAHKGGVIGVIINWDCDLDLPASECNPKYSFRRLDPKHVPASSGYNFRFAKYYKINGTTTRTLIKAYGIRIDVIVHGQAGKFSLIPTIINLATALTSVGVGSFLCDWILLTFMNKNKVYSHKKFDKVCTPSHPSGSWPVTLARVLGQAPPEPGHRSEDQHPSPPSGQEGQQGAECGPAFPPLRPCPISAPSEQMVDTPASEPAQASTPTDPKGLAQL
Assay: FLIPR intracellular calcium assay, hP2X2/3
Settings: human P2X2/3-TRex293 cells, agonist at EC75
Experimental: The FLIPR® assay utilizes cells which express human or rat P2X3 or P2X2/3 receptors. […] Compounds were added to the respective wells of the assay-ready cell plate with the help of the FLIPR and fluorescence readings were captured for 5 min to observe any possible agonistic property of the compounds. […] The cells were stimulated with respective agonist EC75 concentration and the fluorescence readings were captured for another 5 min by FLIPR. […]
measure: IC50

>>> measurement("CCC(C)n1ncc2nc(N3CCN(C(N)=O)CC3)nc(N[C@H](C)c3cn4ccc(C)cc4n3)c21 (stereo partly shown)")
"1000 to 10000 nM"
>>> measurement("CCC(CC)n1ncc2nc(N3CCN(C(C)=O)CC3)nc(NC(C)c3cnc4ccc(F)cc4c3)c21 (stereo not shown)")
"100 to 1000 nM"
>>> measurement("CC(=O)N1CCN(c2nc(N[C@H](C)c3cnc4ccccc4c3)c3c(cnn3CC(C)C)n2)CC1")
"1000 to 10000 nM"
>>> measurement("CCC(CC)n1ncc2nc(N3CCN(C(C)=O)CC3)nc(NCC3(c4ccc(Cl)cc4)CCC3)c21")
"1000 to 10000 nM"
>>> measurement("CCC(CC)n1ncc2nc(-n3ccnn3)nc(N[C@@H](c3cnc4ccccc4c3)C3CC3)c21")
"100 to 1000 nM"
>>> measurement("CCC(C)n1ncc2nc(-c3nnc(C)o3)nc(N[C@@H](c3cnc4ccccc4c3)C3CC3)c21 (stereo partly shown)")
"1000 to 10000 nM"
>>> measurement("CCC(C)n1ncc2nc(N3CCN(C(N)=NC#N)CC3)nc(N[C@@H](c3cnc4ccccc4c3)C3CC3)c21 (stereo partly shown)")
"1 to 100 nM"
